B1: F1*; the commonest letter at each place (parent)
chain: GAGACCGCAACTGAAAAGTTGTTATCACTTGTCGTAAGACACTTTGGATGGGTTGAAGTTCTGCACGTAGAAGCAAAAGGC

variants of: B1; experiment: fraction ligated after 30 min (ligated reads / total reads); higher = more ligase activity; conditions: with F1*sub RNA substrate (template-directed ligation), 42 °C
Please mark True if the recorded fraction ligated is equal to or greater than 0.8, and False if it falls below.

| variant_code | assigned_class |
| --- | --- |
| A24C T44G | False |
| A36C G38T | True |
| T45G G46T | False |
| A36G G38A | True |
| C26G A41T | False |
| A24G C33T | True |
| A27T G46T | False |
| C26T G55C | False |
| G31A A48T | False |
| C26A G50A | False |
| A48C A56T | False |
| T49G G50A | False |
| T23G A56T | False |
| G31T G34A | False |
| A37C T44G | True |
| C26G T45C | False |
| A24G C33A | False |
| C26T A57T | True |
| T32C T45G | False |
| C42T G55T | True |
| G31T A41T | False |
| C26A G46T | False |
| T32G G47C | False |
| C26G A39C | False |
| C28G T49G | False |
| C28A T44A | True |
| A24C A56G | False |
| T45A G46T | False |
| G31T T49A | False |
| T25A C26G | False |
| C26T G46T | False |
| T45G T49G | False |
| T29C G50T | False |
| T35A T43A | True |
| C26A C28A | False |
| A36C A37T | True |
| T45A G47C | False |
| A36T G55A | True |
| T23G | True |
| G34T G38A | True |
| C28T G31T | True |
| G50C | False |
| A39C G46C | False |
| T30G | True |
| T29G T49G | False |
| A24G T44C | False |
| A48C A57T | False |
| C26G C33A | False |
| T30A A57G | True |
| T49G G55T | False |
| C33T G34C | True |
| A27T A39G | True |
| T25C G47T | False |
